target.of.assay: hGPR40 (Homo sapiens, UniProt O14842)
Sequence (O14842 whole entry): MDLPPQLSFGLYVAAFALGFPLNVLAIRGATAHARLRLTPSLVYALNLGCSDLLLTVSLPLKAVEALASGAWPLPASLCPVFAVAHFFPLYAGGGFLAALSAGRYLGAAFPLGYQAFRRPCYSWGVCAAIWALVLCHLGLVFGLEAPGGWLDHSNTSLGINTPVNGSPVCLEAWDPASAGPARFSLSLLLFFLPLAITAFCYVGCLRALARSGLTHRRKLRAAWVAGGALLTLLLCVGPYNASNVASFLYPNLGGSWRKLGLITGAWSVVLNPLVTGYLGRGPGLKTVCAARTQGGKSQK
method.description: FDSS-based intracellular calcium assay in cell lines expressing GPR40
Design: 3xFLAG; expressed in transfected cells
conditions: intracellular Ca2+ response, cells expressing GPR40, FDSS reader
Description: FDSS-Based Intracellular Calcium Assay Cell lines expressing GPR40 are generated using the pDEST-3×FLAG gene expression system and are cultured in culture medium comprising the following components: F12 (Gibco #11765), 10% lipid deprived fetal bovine serum, 250 μg/ml zeocin and 500 μg/ml G418. […] Run fluorescence/luminescence reader FDSS (Hamamatsu) to read intracellular Ca^2+ response.
Where a name gives a salt, the structure may show the parent alone.
measurement.label: pEC50
Worth noting: pEC50 values are minus log10 of concentrations stated in mol/L.

COCCCO[C@H]1CN(c2cnc(OC3CCN(c4cc(OC)ncc4Cl)CC3C)c(C)c2)[C@@H](CC(=O)O)[C@@H]1C (single isomer, unassigned) : 6.52

Req: Provide the documented pEC50 with hGPR40 (Homo sapiens, UniProt O14842) as the system for CCOc1ccc(F)c(N2CCC(Oc3ccc(N4C[C@H](CCCOC)C[C@@H]4CC(=O)O)cc3)CC2)c1 [Example 10, TFA]
Resp: 6.42

Req: Thanks! And CCCCOc1cc(N2C[C@H](OCCCOC)[C@@H](C)[C@@H]2CC(=O)O)cnc1OC1CCN(c2cc(OC)ncc2Cl)CC1C (single isomer, unassigned) [Example 23, TFA] ?
Resp: 6.96
